Target under test: Mot3 (UniProt P54785)
Sequence: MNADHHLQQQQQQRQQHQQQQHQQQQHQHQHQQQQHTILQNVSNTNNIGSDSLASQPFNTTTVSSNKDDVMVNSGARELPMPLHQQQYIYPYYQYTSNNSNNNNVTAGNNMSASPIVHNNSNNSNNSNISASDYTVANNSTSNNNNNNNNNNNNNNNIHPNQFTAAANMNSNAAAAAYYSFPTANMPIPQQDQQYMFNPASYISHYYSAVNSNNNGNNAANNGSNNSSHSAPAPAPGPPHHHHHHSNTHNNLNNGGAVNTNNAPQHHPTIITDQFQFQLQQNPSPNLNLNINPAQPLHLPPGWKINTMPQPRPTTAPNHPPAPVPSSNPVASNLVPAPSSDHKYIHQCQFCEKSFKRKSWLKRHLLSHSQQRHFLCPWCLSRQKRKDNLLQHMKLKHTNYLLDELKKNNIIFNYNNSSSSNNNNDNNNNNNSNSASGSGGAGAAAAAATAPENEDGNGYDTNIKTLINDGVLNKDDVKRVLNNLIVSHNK
Test method notes: PBM E-score (8-mer binding enrichment) (E-score (-0.5 to 0.5)); higher = stronger / more preferred TF binding
Run conditions: protein concentration: 200 nM; construct: GST-full length
Over roughly 33,000 sequences, “E-score (-0.5 to 0.5)” has its median near -0.035; the highest 2% begin near 0.34. The full list was thinned out, with the highest values kept by preference.
Property: PBM E-score

For orientation, consider the following solved cases.
Query: Reported PBM E-score for `AGTTTACC` : what is it?
Reply: 0.0908

Query: Another: `CGTTTACC`
Reply: 0.0878

Query: Another: `AACATAGA`
Reply: 0.2

Query: Another: `ATCTACAG`
Reply: 0.0501

Query: Another: `AGTTTACG`
Reply: 0.188

Query: Another: `ACCTACAC`
Reply: 0.258

New cases:
Query: Reported PBM E-score for `ATCTACAA` : what is it?
Reply: 0.205

Query: Another: `ATCTACAT`
Reply: 0.349
